Listing: GI50 of selected molecules
- Tested on: SF-539
- METHOD_NOTES: NCI tumour cell line growth inhibition, 48 h
Calls of active or inactive are those of the source. No stated cut-off is given here; in the data, active = GI50 up to about 1.1 µM and inactive = higher.

COc1cc(Nc2nc3ccccc3nc2C(=O)O)cc(OC)c1OC: > 100 µM (inactive)
C[C@H]1C(OCCOC2O[C@@H]3O[C@@]4(C)CC[C@H]5[C@H](C)CCC([C@H]2C)[C@@]35O4)O[C@@H]2O[C@@]3(C)CC[C@H]4[C@H](C)CCC1[C@@]24O3 (stereo not given in full): 55.7 µM (inactive)
O=S(=O)(N1CCCCN(S(=O)(=O)C(F)(F)F)CCCN(S(=O)(=O)C(F)(F)F)CCCCN(S(=O)(=O)C(F)(F)F)CCCN(S(=O)(=O)C(F)(F)F)CCCCN(S(=O)(=O)C(F)(F)F)CCCN(S(=O)(=O)C(F)(F)F)CCCCN(S(=O)(=O)C(F)(F)F)CCC1)C(F)(F)F: > 31.6 µM (inactive)
COC(=O)Nc1nc2cc(S(=O)(=O)Nc3ccccn3)ccc2[nH]1: 22.7 µM (inactive)

// next entry
Q: State, in one line, measured GI50 of O=[N+]([O-])c1ccc(/C=C\c2ccc3c(c2)OCO3)c([N+](=O)[O-])c1
Ans: 20 µM (inactive)

----------
- Test system: SW-620
- METHOD_NOTES: NCI tumour cell line growth inhibition, 48 h
The source made the active and inactive calls. Cut-off read from the data, not from the text of the source: active = GI50 up to about 1.1 µM and inactive = higher.
# output must be one of active, inactive

Examples with answers:
N#CC(C(=O)Nc1ccccc1)C1=C(Cl)C(=O)c2ccccc2C1=O (configuration not stated): inactive
C=C(C)C1Cc2c(cc(O)c3c(=O)c4ccccc4n(C)c23)O1 (configuration not stated): inactive
CC1(C)CC[C@]2(C(=O)O)CC[C@]3(C)C(=CC[C@@H]4[C@@]5(C)CC[C@H](OC6OC(C(=O)O)C(O)C(O)C6O)C(C)(C)[C@@H]5CC[C@]43C)[C@@H]2C1 (some centres not stated): inactive

Q: I'd appreciate the recorded outcome for CC(C)(Cl)C(Br)CC/C(=C/CCl)CBr.CC(C)(Cl)C(Br)CC/C(=C\CCl)CBr (configuration not stated) from this test.
Ans: inactive

Q: I'd appreciate the recorded outcome for CCOC(=O)N1CCN(c2nc(C)n(-c3ccccc3)c(=S)c2C#N)CC1 from this test.
Ans: inactive

Q: I'd appreciate the recorded outcome for CCOC(=O)c1cn(CC)c2ccc3c(c2c1=O)S(=O)(=O)C=C3 from this test.
Ans: inactive

Q: I'd appreciate the recorded outcome for c1cc2cc(c1)CN1CCNCCN(CCNCC1)Cc1cccc(c1)CN1CCNCCN(CCNCC1)C2 from this test.
Ans: inactive

Q: I'd appreciate the recorded outcome for O=Cc1coc2ccccc2c1=O from this test.
Ans: inactive

Q: I'd appreciate the recorded outcome for CC1(C)OC2C(CO)OC(n3ccc(=O)[nH]c3=O)C2O1 (configuration not stated) from this test.
Ans: inactive

Q: I'd appreciate the recorded outcome for N#Cc1cc([N+](=O)[O-])ccc1NC(=O)/C(=N\NC(=O)c1ccncc1)C(c1cnc2ccc([N+](=O)[O-])cc2n1)[N+](=O)[O-] (configuration not stated) from this test.
Ans: inactive

Q: I'd appreciate the recorded outcome for CC(CCCOC(c1ccccc1)(c1ccccc1)c1ccccc1)OC(=O)Nc1ccccc1 (configuration not stated) from this test.
Ans: inactive

Q: I'd appreciate the recorded outcome for Cc1c(/C=C2\CC/C(=C\c3[nH]c(C(=O)OC(C)(C)C)c(C)c3C)C2=O)[nH]c(C(=O)OC(C)(C)C)c1C from this test.
Ans: inactive

Q: I'd appreciate the recorded outcome for COC(=O)CCn1cnc2c(SC)ncnc21 from this test.
Ans: inactive

Q: I'd appreciate the recorded outcome for O=[N+]([O-])C(=C1Nc2ccccc2N1)C(Cl)=C(Cl)Cl from this test.
Ans: inactive

Q: I'd appreciate the recorded outcome for COc1ccc(/C(C)=N/NC(N)=S)c(OC)c1 from this test.
Ans: inactive

Q: I'd appreciate the recorded outcome for CCOC(=O)/C(ON)=C(/CC/C(C(=O)OC)=C(\ON)C(=O)OCC)C(=O)OC from this test.
Ans: inactive

Q: I'd appreciate the recorded outcome for COc1ccc(NC(=O)C(=O)NNC(=O)c2sc(NNC(C)=O)nc2C)c([N+](=O)[O-])c1 from this test.
Ans: inactive

Q: I'd appreciate the recorded outcome for O=[N+]([O-])c1ccc(/C=C\c2ccc3c(c2)OCO3)c([N+](=O)[O-])c1 from this test.
Ans: inactive
